Substrate: O=c1[nH]cc(CO)c(=O)[nH]1
Experiment: purified protein
Settings: 1 mM α-KG, 0.2 mM (NH4)2Fe(SO4)2, 0.2 mM ascorbic acid, 100 mM Hepes pH 7.5, 25 °C
For each record, write down the corresponding kcat/Km.
Respond with the bare value in M⁻¹ s⁻¹.

Input: Entry NcT7H (thymine-7-hydroxylase) (Neurospora crassa OR74A; R286A) (protein, full length (residues 1-333), C-terminal His6-tag, pET-28a, expressed in E. coli BL21(DE3); Ni-NTA and gel filtration, tag removal not mentioned) MEKAAVNEDGLVIPLIDFSKFLEGDETLKLETAKAILHGFQTAGFIYLKNIPIQPDFREHVFNTSAKFFKLPKEKKLEVGWTTPEANRGYSAPGREKVTQLTDPAEIEKIRSAAPDIKESYEIGREDEPGHPNPWPAEQDDLVGFKSTMNNFFDQCKALHIEVMRAIAVGMGIDANYFDSFVDVGDNILRLLHYPAVKSEVFKINPGQVRAGEHTDYGSITLLFQDSRGGLQVKSPNGQFIDATPIENTVVVNAGDLLARWSNDTIKSTVHRVVEPPKQEDVHPPAYSIAYFCNPNHKSYIEAIPGTYAAESERKYEGINSGKYLVQRLAATY needs its kcat/Km filled in; supply it.
Output: 150

Input: Give kcat/Km for NcT7H (thymine-7-hydroxylase) (Neurospora crassa OR74A; Y217F) (protein, full length (residues 1-333), C-terminal His6-tag, pET-28a, expressed in E. coli BL21(DE3); Ni-NTA and gel filtration, tag removal not mentioned) MEKAAVNEDGLVIPLIDFSKFLEGDETLKLETAKAILHGFQTAGFIYLKNIPIQPDFREHVFNTSAKFFKLPKEKKLEVGWTTPEANRGYSAPGREKVTQLTDPAEIEKIRSAAPDIKESYEIGREDEPGHPNPWPAEQDDLVGFKSTMNNFFDQCKALHIEVMRAIAVGMGIDANYFDSFVDVGDNILRLLHYPAVKSEVFKINPGQVRAGEHTDFGSITLLFQDSRGGLQVKSPNGQFIDATPIENTVVVNAGDLLARWSNDTIKSTVHRVVEPPKQEDVHPPRYSIAYFCNPNHKSYIEAIPGTYAAESERKYEGINSGKYLVQRLAATY
Output: 2230

Provenance of the data: paper PMC4787775
